Hey, just so you know, these numbers are from PubChem BioAssay AID1030.

TESTED_ON: Aldehyde dehydrogenase 1A1 (Homo sapiens) (UniProt P00352)
Sequence (P00352 whole entry, looked up): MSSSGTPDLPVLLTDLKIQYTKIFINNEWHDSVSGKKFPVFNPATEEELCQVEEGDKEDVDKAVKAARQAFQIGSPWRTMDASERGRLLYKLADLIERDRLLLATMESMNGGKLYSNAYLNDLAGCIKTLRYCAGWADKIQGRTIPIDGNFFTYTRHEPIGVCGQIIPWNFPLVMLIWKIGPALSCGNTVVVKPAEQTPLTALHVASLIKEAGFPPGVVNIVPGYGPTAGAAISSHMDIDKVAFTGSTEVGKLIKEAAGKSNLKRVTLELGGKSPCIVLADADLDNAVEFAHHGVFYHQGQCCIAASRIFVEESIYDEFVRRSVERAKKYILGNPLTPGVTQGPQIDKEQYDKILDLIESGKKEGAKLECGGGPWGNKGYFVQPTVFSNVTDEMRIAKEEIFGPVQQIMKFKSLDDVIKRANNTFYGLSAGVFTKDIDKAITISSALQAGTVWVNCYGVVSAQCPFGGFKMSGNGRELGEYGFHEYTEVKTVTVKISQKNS
TEST_NAME: qHTS Assay for Inhibitors of Aldehyde Dehydrogenase 1 (ALDH1A1)
CONDITION_INFO: Purified ALDH1A1, NADH fluorescence, propionaldehyde substrate; series mostly up to 75.3 µM
The campaign covered roughly 220,000 compounds. About 16,000 (7.3%) were called active. About 25% were inconclusive and are not listed. Calls come from the whole dose curve; as a rule, active = well fitted inhibition curve with a large enough effect (not every such curve was filed as active); inconclusive = small, poorly fitted or top-dose-only effect, or another doubt; inactive = no such curve, though single readings can be large or run the other way. The entries come from a sample that favours actives as a whole.
Possible outcomes: active, inactive

COC1CC(OC2CC[C@@]3(C=O)C4CC[C@]5(C)C(C6=CC(=O)OC6)CC[C@@]5(O)C4CC[C@]3(O)C2)OC(C)C1O (some centres undefined) = inactive
c1ccc(Cc2nn3c(Cn4cnc5ccccc54)nnc3s2)cc1 = active
CCCCCCCCCCCCCC(=O)O[C@@H]1[C@@H](C)[C@@]2(O)[C@@H](C=C(CO)C[C@]3(O)C(=O)C(C)=C[C@@H]23)[C@@H]2C(C)(C)[C@]12OC(C)=O = inactive
CSC1=NP(=S)(SC)N(C)c2nc3n(c21)CCC3 (centres undefined) = inactive
